Measured values drawn from patent US20200061062A1 for this set.

compounds and their reported log10(IC50)
- Study System: PI3Kβ (Homo sapiens, UniProt P42338)
- Construct: His tag (pFastbac HTa vector) (N); FLAG (N); made in house; host or cells: Sf21 insect cells (baculovirus)
- Sequence (P42338 whole entry): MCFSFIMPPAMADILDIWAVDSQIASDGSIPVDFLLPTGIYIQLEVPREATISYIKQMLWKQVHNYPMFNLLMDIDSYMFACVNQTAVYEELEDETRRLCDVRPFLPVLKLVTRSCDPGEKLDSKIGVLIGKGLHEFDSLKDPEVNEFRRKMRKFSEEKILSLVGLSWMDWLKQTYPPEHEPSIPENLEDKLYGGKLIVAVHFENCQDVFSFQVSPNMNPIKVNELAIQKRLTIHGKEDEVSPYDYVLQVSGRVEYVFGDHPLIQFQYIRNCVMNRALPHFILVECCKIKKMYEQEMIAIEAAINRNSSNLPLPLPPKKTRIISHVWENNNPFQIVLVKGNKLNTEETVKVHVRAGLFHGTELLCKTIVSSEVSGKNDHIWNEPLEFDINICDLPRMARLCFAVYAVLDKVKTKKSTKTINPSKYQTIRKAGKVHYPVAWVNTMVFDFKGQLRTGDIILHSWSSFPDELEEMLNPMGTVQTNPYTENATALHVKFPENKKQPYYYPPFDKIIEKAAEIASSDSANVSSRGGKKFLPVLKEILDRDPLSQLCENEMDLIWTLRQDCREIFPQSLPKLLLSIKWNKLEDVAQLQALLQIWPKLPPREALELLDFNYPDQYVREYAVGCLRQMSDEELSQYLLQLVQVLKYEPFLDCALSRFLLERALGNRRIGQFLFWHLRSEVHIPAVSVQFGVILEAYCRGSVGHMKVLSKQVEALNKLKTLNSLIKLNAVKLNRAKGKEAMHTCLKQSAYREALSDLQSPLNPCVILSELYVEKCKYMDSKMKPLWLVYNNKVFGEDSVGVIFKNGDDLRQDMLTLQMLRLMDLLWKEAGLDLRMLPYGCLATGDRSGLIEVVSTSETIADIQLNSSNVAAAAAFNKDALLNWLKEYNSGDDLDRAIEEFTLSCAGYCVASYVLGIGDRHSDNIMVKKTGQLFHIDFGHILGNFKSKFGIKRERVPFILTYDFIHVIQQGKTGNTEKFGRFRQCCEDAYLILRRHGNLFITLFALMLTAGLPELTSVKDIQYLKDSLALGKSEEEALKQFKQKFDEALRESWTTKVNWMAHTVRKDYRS
- Sequence (P27986 whole entry partner): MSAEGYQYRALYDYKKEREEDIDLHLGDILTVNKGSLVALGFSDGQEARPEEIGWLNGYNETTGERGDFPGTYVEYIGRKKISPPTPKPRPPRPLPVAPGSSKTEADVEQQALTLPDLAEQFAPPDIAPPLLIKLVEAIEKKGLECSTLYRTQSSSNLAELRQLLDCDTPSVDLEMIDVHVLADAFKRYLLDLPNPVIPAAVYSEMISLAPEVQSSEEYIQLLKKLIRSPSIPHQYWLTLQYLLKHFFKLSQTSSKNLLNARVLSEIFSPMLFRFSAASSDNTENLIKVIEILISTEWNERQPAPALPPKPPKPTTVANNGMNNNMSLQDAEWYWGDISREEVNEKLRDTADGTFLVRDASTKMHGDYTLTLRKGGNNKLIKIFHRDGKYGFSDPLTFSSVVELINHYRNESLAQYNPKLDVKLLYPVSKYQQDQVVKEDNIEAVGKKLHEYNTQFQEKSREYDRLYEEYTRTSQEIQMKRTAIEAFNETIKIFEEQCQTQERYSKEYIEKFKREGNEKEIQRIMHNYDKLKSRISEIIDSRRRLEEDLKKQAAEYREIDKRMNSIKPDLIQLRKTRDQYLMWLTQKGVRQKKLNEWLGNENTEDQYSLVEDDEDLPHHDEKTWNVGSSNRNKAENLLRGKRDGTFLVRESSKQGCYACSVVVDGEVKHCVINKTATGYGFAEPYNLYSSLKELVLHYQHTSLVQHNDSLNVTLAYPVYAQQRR
- Protocol Text: Biochemical assay of PI3K potency and selectivity using 20 μM ATP, Beta
- Measurement Setup: 20 μM ATP; read-out: Beta IC50
Parameter: log10(IC50) (log10 of the value in µM)

>>> df
                              smiles_record    parameter  experimental_value
0   CCCCn1c(Cn2cnc3c(N)ncnc32)nc2ccccc2c1=O  log10(IC50)                1.61
1  O=c1c2ccc(F)cc2nc(CSc2ncnc3[nH]cnc23)n1-c1ccccc1Cl  log10(IC50)                2.04
2  COc1cc2nc(Cn3cnc4c(N)ncnc43)n(-c3ccccc3Cl)c(=O)c2cc1OC  log10(IC50)                1.65
3  Nc1ncnc2c1ncn2Cc1nc2cccc(F)c2c(=O)n1Cc1ccccc1  log10(IC50)                1.48
4  Nc1ncnc2c1ncn2Cc1nc2c(Cl)cccc2c(=O)n1-c1ccccc1Cl  log10(IC50)                1.83
5  Nc1ncnc2c1ncn2Cc1nc2cccc(Cl)c2c(=O)n1-c1ccccc1F  log10(IC50)                1.04
6  Nc1ncnc2c1ncn2Cc1nc2cccc(Cl)c2c(=O)n1-c1ccccc1Cl  log10(IC50)                0.78
7  COc1ccccc1-n1c(CSc2ncnc3[nH]cnc23)nc2cccc(C)c2c1=O  log10(IC50)                0.95
